Target: bacterial thymidine phosphorylase (Escherichia coli, UniProt P07650)
Construct: purchased Sigma Chemical Co., St. Louis, MO
Sequence (P07650 whole entry): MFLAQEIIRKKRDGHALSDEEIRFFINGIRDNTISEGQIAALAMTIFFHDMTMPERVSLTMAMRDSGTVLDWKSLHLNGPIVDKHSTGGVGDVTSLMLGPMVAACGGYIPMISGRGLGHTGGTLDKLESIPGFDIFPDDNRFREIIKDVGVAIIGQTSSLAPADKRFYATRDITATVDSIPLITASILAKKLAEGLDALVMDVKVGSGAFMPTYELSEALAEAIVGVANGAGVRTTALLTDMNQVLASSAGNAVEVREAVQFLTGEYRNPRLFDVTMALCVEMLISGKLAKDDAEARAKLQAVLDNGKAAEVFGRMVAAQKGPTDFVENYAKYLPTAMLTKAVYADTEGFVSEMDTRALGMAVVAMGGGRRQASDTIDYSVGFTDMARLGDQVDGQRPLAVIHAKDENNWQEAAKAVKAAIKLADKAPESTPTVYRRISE
Experiment: Phosphorolytic cleavage by dThd phosphorylase
Assay type: biochemical
Conditions: purified bacterial dThd phosphorylase
assayMetric: susceptibility to phosphorolysis by dThd phosphorylase (in words)

Report susceptibility to phosphorolysis by dThd phosphorylase (in words) for [N-]=[N+]=N[C@H]1C[C@H](n2ccc(N)nc2=O)O[C@@H]1CO please.
totally resistant

Consider next the compound Nc1ccn([C@H]2C[C@H](F)[C@@H](CO)O2)c(=O)n1 in the same way.
totally resistant

And the next one, Nc1ccn([C@H]2CC[C@@H](CO)O2)c(=O)n1 ?
totally resistant

Attribution: patent EP0316592A2
